conditions: 333.15 K; Liquid; isothermal bubble-point pressure
Measured vapor or sublimation pressure values are reported for all entries that follow.
# number only, unit kPa dropped from output

Record excerpt, results attached:
1) Cc1cccc(C)c1	6.58
2) CNC=O [N-methylformamide]	0.37
3) Cc1ccc(C)cc1	6.85

Shift focus to the following entry.
Query block: Quick one: vapor or sublimation pressure for Cc1ccccc1C ?
Result block: 5.45

----------
conditions: 333.15 K; Liquid; Vibrating tube method
quantity-kind: mass density (kg/m3)
# number only, unit kg/m3 dropped from output

1) CNC=O [N-methylformamide]	967.461
2) Cc1cccc(C)c1 [1,3-dimethylbenzene]	829.305
3) Cc1ccc(C)cc1 [1,4-dimethylbenzene]	825.539

Query block: Quick one: mass density for Cc1ccccc1C [1,2-dimethylbenzene] ?
Result block: 845.839

Origin of measurements: the NIST ThermoML archive (doi:10.1016/j.fluid.2009.12.002)
